# target: Pgp (LCC6MDR cells) (Homo sapiens)
# Sequence (P08183 whole entry): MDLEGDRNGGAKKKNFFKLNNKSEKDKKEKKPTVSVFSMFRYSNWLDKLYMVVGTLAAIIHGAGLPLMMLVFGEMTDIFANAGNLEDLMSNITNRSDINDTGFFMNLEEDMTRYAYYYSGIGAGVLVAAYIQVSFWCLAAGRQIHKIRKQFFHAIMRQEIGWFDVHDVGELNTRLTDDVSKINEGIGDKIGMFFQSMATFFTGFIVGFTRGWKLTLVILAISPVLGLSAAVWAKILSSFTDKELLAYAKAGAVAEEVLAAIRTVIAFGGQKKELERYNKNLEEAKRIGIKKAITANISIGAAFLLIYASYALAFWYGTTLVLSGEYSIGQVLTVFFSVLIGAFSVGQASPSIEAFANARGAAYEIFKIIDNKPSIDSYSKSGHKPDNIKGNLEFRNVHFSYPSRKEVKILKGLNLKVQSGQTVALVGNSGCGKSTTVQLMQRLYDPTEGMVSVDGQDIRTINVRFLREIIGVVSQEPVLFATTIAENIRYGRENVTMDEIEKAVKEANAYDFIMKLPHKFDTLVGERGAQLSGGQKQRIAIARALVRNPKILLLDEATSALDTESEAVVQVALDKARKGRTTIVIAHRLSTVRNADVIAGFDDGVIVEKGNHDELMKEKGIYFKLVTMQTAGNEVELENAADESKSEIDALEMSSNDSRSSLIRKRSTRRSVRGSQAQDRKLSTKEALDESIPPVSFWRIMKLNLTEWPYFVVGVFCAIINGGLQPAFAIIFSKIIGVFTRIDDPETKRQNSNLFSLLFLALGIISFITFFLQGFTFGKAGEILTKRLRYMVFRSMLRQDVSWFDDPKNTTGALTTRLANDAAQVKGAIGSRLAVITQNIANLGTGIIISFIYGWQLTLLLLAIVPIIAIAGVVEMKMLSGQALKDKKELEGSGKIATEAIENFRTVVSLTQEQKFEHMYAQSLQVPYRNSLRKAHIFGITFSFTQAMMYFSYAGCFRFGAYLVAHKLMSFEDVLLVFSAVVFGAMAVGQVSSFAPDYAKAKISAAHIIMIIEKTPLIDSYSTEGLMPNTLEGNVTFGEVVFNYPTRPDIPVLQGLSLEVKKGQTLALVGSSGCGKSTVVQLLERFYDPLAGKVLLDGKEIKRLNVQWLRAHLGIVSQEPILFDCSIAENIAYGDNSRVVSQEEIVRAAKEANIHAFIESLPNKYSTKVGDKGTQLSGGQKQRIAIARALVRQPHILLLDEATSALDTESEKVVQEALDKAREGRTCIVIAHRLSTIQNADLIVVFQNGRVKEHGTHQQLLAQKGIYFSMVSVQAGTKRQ
# procedure.details: Cell proliferation assay: Pgp-modulating activity, reversal of anticancer drug resistance in LCC6MDR cells
# experimental.conditions: IC50 of compounds for L929/EC50 of compounds for lowering paclitaxel drug resistance
metric.name: Therapeutic index

Use these answered entries as a reference point.
COc1ccc(CN(CCOCCOc2ccc(-c3cc(=O)c4ccccc4o3)cc2)CCOCCOc2ccc(-c3cc(=O)c4ccccc4o3)cc2)cc1 [Compound 42a] | >961.5
O=c1cc(-c2ccc(OCCOCCN(CCOCCOc3ccc(-c4cc(=O)c5ccccc5o4)cc3)Cc3ccc4c(c3)OCO4)cc2)oc2ccccc12 [Compound 42e] | >490.2
O=c1cc(-c2ccc(OCCOCCN(CCOCCOc3ccc(-c4cc(=O)c5ccccc5o4)cc3)Cc3cccc(F)c3)cc2)oc2ccccc12 [Compound 37] | >337.2
O=c1cc(-c2ccc(OCCOCCN(CCOCCOc3ccc(-c4cc(=O)c5ccccc5o4)cc3)Cc3ccc(F)cc3F)cc2)oc2ccccc12 [Compound 40] | >406.5
O=c1cc(-c2ccc(OCCOCCN(CCOCCOc3ccc(-c4cc(=O)c5ccccc5o4)cc3)Cc3ccc(-c4ccccc4)cc3)cc2)oc2ccccc12 [Compound 57] | >958.3
O=c1cc(-c2ccc(OCCOCCN(CCCc3ccccc3)CCOCCOc3ccc(-c4cc(=O)c5ccccc5o4)cc3)cc2)oc2ccccc12 [Compound 26] | 38.0
O=c1cc(-c2ccc(OCCOCCN(CCOCCOc3ccc(-c4cc(=O)c5ccccc5o4)cc3)Cc3ccccc3F)cc2)oc2ccccc12 [Compound 36] | >558.7
Nc1ccc(CN(CCOCCOc2ccc(-c3cc(=O)c4ccccc4o3)cc2)CCOCCOc2ccc(-c3cc(=O)c4ccccc4o3)cc2)cc1 [Compound 55] | 204.9

In one line, give reported Therapeutic index of the entry CCN(CCOCCOc1ccc(-c2cc(=O)c3ccccc3o2)cc1)CCOCCOc1ccc(-c2cc(=O)c3ccccc3o2)cc1 [Compound 13] .
34.5

Please supply the value of reported Therapeutic index for the item O=c1cc(-c2ccc(OCCOCCN(CCOCCOc3ccc(-c4cc(=O)c5ccccc5o4)cc3)Cc3c(F)cccc3F)cc2)oc2ccccc12 [Compound 41]
>421.9
